- Assayed system: HCV NS5B (Hepatitis C virus genotype 1b)
- Construct: The protein was expressed with an 18 amino acid C-terminal truncation to enhance the solubility; made in house; host or cells: E. coli BL21 (DE3), pET21a
- Sequence (Q9WMX2 2420-2992): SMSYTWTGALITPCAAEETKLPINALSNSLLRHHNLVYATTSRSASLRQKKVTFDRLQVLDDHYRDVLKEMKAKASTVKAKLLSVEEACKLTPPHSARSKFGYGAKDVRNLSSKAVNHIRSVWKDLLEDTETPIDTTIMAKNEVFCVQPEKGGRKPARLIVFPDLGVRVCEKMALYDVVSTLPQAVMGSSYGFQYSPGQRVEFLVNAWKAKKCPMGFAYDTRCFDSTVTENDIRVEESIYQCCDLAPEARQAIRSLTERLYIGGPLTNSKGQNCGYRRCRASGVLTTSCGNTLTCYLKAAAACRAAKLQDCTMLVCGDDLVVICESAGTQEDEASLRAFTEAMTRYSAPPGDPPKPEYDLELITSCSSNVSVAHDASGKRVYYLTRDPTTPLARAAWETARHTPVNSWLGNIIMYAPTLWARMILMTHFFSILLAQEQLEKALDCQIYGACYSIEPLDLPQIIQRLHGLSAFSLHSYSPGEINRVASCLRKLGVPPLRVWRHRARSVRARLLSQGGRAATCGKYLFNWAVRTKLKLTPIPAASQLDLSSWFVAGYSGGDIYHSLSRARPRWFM
- Procedure details: HCV NS5B RdRp enzyme assay (preincubation protocol)
- Assay type: biochemical
- Condition notes: Table 1b, read-out: IC50*
Metric: IC50

- Molecule: "COc1ccc2c(c1)C=C(C(=O)N1CC(O)C1)Cn1c-2c(C2CCCCC2)c2ccc(C(=O)NS(=O)(=O)N(C)C)cc21"
  Result: "20 to 1000 nM"
- Molecule: "COc1ccc2c(c1)C=C(C(=O)N1CC(N(C)C)C1)Cn1c-2c(C2CCCCC2)c2ccc(C(=O)NS(=O)(=O)N(C)C)cc21"
  Result: "20 to 1000 nM"
- Molecule: "COc1cccc2c1C=C(C(=O)N1CCOC(CF)C1)Cn1c-2c(C2CCCCC2)c2ccc(C(=O)NS(=O)(=O)N(C)C)cc21 (centres unmarked)"
  Result: "20 to 1000 nM"
- Molecule: "COc1ccc2c(c1)CC(C(=O)N1CCN(CCOCCO)CC1)Cn1c-2c(C2CCCCC2)c2ccc(C(=O)NS(=O)(=O)N(C)C)cc21 (centres unmarked)"
  Result: "20 to 1000 nM"
- Molecule: "COc1ccc2c(c1)C=C(C(=O)N1CCN(C(=O)C3(O)CC3)CC1)Cn1c-2c(C2CCCCC2)c2ccc(C(=O)NS(=O)(=O)N(C)C)cc21"
  Result: "20 to 1000 nM"
- Molecule: "COc1ccc2c(c1)C=C(C(=O)N[C@@](C)(CO)C(=O)N(C)C)Cn1c-2c(C2CCCCC2)c2ccc(C(=O)NS(=O)(=O)N(C)C)cc21"
  Result: "20 to 1000 nM"
- Molecule: "COC[C@@H]1CN(C(=O)C2=Cc3cc(OC)ccc3-c3c(C4CCCCC4)c4ccc(C(=O)NS(=O)(=O)N(C)C)cc4n3C2)CCO1"
  Result: "20 to 1000 nM"
- Molecule: "COc1ccc2c(c1)CC(NC(=O)N(C)CC1CCOCC1)Cn1c-2c(C2CCCCC2)c2ccc(C(=O)NS(=O)(=O)N(C)C)cc21 (centres unmarked)"
  Result: "20 to 1000 nM"
- Molecule: "COc1ccc2c(c1)C=C(C(=O)N1C[C@@H](C)N(C(C)C)[C@@H](C)C1)Cn1c-2c(C2CCCCC2)c2ccc(C(=O)NS(=O)(=O)N(C)C)cc21"
  Result: "20 to 1000 nM"
- Molecule: "COc1ccc2c(c1)C=C(C(=O)N1C[C@H](CO)[C@@H](O)[C@H](O)C1)Cn1c-2c(C2CCCCC2)c2ccc(C(=O)NS(=O)(=O)N(C)C)cc21"
  Result: "< 20 nM"
- Molecule: "COc1ccc2c(c1)C=C(C(=O)N1CC(N)C1)Cn1c-2c(C2CCCCC2)c2ccc(C(=O)NS(=O)(=O)N(C)C)cc21"
  Result: "20 to 1000 nM"
- Molecule: "COc1ccc2c(c1)C[C@@H](NC(=O)N(C)CC(=O)N(C)C)Cn1c-2c(C2CCCCC2)c2ccc(C(=O)NS(=O)(=O)N(C)C)cc21"
  Result: "20 to 1000 nM"
- Molecule: "COc1ccc2c(c1)C=C(C(=O)N(CC(=O)N(C)C)CC(=O)N(C)C)Cn1c-2c(C2CCCCC2)c2ccc(C(=O)NS(=O)(=O)N(C)C)cc21"
  Result: "< 20 nM"
- Molecule: "COc1ccc2c(c1)CC(NC(=O)N1CCC(C(N)=O)C1)Cn1c-2c(C2CCCCC2)c2ccc(C(=O)NS(=O)(=O)N(C)C)cc21 (centres unmarked)"
  Result: "20 to 1000 nM"
- Molecule: "COc1ccc2c(c1)C=C(C(=O)N(C)[C@H](C)C(=O)O)Cn1c-2c(C2CCCCC2)c2ccc(C(=O)NS(=O)(=O)N(C)C)cc21"
  Result: "20 to 1000 nM"
- Molecule: "CN(C)C(=O)CN(C)C(=O)C1=Cc2ccccc2-c2c(C3CCCCC3)c3ccc(C(=O)Nc4ccccn4)cc3n2C1"
  Result: "20 to 1000 nM"
- Molecule: "COc1ccc2c(c1)C[C@H](NC(=O)N(C)CC(=O)N(C)C)Cn1c-2c(C2CCCCC2)c2ccc(C(=O)NS(=O)(=O)N(C)C)cc21"
  Result: "20 to 1000 nM"
- Molecule: "COC(=O)c1ccc2c(C3CCCCC3)c3n(c2c1)CC(C(=O)N1CCOC(CO)C1)=Cc1c(OC)cccc1-3 (centres unmarked)"
  Result: "> 12500 nM"
- Molecule: "COc1ccc2c(c1)C=C(C(=O)N1CCOC(CF)C1)Cn1c-2c(C2CCCCC2)c2ccc(C(=O)NS(=O)(=O)N(C)C)cc21 (centres unmarked)"
  Result: "20 to 1000 nM"
- Molecule: "COc1ccc2c(c1)CC(C(=O)N1CCN(C(=O)C(C)(C)O)CC1)Cn1c-2c(C2CCCCC2)c2ccc(C(=O)NS(=O)(=O)N(C)C)cc21 (centres unmarked)"
  Result: "20 to 1000 nM"
- Molecule: "COc1ccc2c(c1)C=C(C(=O)N1C[C@@H](C)N(CC3CC3)[C@@H](C)C1)Cn1c-2c(C2CCCCC2)c2ccc(C(=O)NS(=O)(=O)N(C)C)cc21"
  Result: "20 to 1000 nM"
- Molecule: "COc1ccc2c(c1)CC(NC(=O)N1CC(OC)C1)Cn1c-2c(C2CCCCC2)c2ccc(C(=O)NS(=O)(=O)N(C)C)cc21 (centres unmarked)"
  Result: "20 to 1000 nM"
- Molecule: "COc1ccc2c(c1)C=C(C(=O)N(C)[C@H](C(=O)O)C(C)C)Cn1c-2c(C2CCCCC2)c2ccc(C(=O)NS(=O)(=O)N(C)C)cc21"
  Result: "< 20 nM"
- Molecule: "COc1ccc2c(c1)C=C(C(=O)N1CCN(c3ccccn3)CC1)Cn1c-2c(C2CCCCC2)c2ccc(C(=O)NS(=O)(=O)N(C)C)cc21"
  Result: "20 to 1000 nM"
- Molecule: "COc1ccc2c(c1)C=C(C(=O)N(C)CC(=O)N(C)C)Cn1c-2c(C2CCCCC2)c2ccc(C(=O)N(C)CC(=O)N(C)C)cc21"
  Result: "20 to 1000 nM"
- Molecule: "COC(=O)c1ccc2c(C3CCCCC3)c3n(c2c1)CC(C(=O)N[C@@H]1C2CCC(C)([C@@H]1O)C2(C)C)=Cc1cc(OC)ccc1-3 (some centres unmarked)"
  Result: "> 12500 nM"

src = patent US7473688B2
